Origin of the recorded values: ChEMBL document CHEMBL1287666

System: Cryptococcus neoformans
Assay Info: Antifungal activity against Cryptococcus neoformans by serial dilution method
Assay type: functional
Measured MIC by item
Measured Property: MIC

INSERT INTO measurements (structure, measured_property, result) VALUES
  ('COc1ccc2c(=O)c(C#CCOC(=O)Cc3ccccc3Cl)coc2c1', 'MIC', '> 100 µg/mL'),
  ('CCCCCC(=O)OCC#Cc1coc2cc(OC)ccc2c1=O', 'MIC', '> 100 µg/mL'),
  ('COc1ccc2c(=O)c(C#CCOC(=O)c3cc([N+](=O)[O-])cc([N+](=O)[O-])c3)coc2c1', 'MIC', '> 100 µg/mL'),
  ('CCC(=O)OCC#Cc1coc2cc(OC)ccc2c1=O', 'MIC', '25 µg/mL'),
  ('CCCCCCC(=O)OCC#Cc1coc2cc(OC)ccc2c1=O', 'MIC', '> 100 µg/mL'),
  ('COc1ccc2c(=O)c(C#CCOC(=O)C3C(C)(C)C3(C)C)coc2c1', 'MIC', '> 100 µg/mL'),
  ('COc1ccc2c(=O)c(C#CCOC(=O)c3ccc([N+](=O)[O-])cc3)coc2c1', 'MIC', '> 100 µg/mL'),
  ('COc1ccc2c(=O)c(C#CCOC(=O)C3CCCCC3)coc2c1', 'MIC', '> 100 µg/mL'),
  ('COc1ccc2c(=O)c(C#CCOC(C)=O)coc2c1', 'MIC', '> 100 µg/mL'),
  ('COc1ccc2c(=O)c(C#CCOC(=O)C(C)C)coc2c1', 'MIC', '50 µg/mL'),
  ('CCCCC(=O)OCC#Cc1coc2cc(OC)ccc2c1=O', 'MIC', '25 µg/mL');

----------
System: Cryptococcus neoformans
Assay Info: Antifungal activity against Cryptococcus neoformans by serial dilution method
Format: functional
Measured Property: MIC

INSERT INTO measurements (structure, measured_property, result) VALUES
  ('COc1ccc2c(=O)c(C#CCOC(=O)Cc3ccc(Cl)cc3)coc2c1', 'MIC', '> 100 µg/mL'),
  ('CCCCCCCC(=O)OCC#Cc1coc2cc(OC)ccc2c1=O', 'MIC', '> 100 µg/mL'),
  ('COc1ccc2c(=O)c(C#CCO)coc2c1', 'MIC', '> 100 µg/mL');

----------
System: Candida parapsilosis
Assay Info: Antifungal activity against Candida parapsilosis clinical isolate by serial dilution method
Assay type: functional
Applied Conditions: Lodderomyces parapsilosis
Measured MIC by item
Measured Property: MIC

INSERT INTO assay_data (structure, result) VALUES
  ('COc1ccc2c(=O)c(C#CCOC(=O)CC(C)C)coc2c1', '50 µg/mL'),
  ('COc1ccc2c(=O)c(C#CCOC(=O)Cc3ccccc3)coc2c1', '> 100 µg/mL'),
  ('COc1ccc2c(=O)c(C#CCOC(=O)c3ccc([N+](=O)[O-])cc3)coc2c1', '> 100 µg/mL'),
  ('CCCCCC(=O)OCC#Cc1coc2cc(OC)ccc2c1=O', '50 µg/mL'),
  ('CCCCC(=O)OCC#Cc1coc2cc(OC)ccc2c1=O', '25 µg/mL'),
  ('CCCCCCC(=O)OCC#Cc1coc2cc(OC)ccc2c1=O', '> 100 µg/mL'),
  ('COc1ccc2c(=O)c(C#CCOC(C)=O)coc2c1', '> 100 µg/mL'),
  ('COc1ccc2c(=O)c(C#CCO)coc2c1', '> 100 µg/mL'),
  ('COc1ccc2c(=O)c(C#CCOC(=O)c3cc([N+](=O)[O-])cc([N+](=O)[O-])c3)coc2c1', '> 100 µg/mL');
